system: recombinant human soluble COMT (S-COMT) (Homo sapiens, UniProt P21964)
protocol: COMT inhibiting activity in vitro, Assay 2 (HPLC with fluorescence detection)
Type: biochemical
condition-context: Assay 2: 0.8 nM S-COMT, esculetin 0.5 μM, Morrison equation
Reported pKi is given for each of the following compounds.
To interpret pKi, take it as minus log10 of a concentration measured in moles per litre.

1) Cc1ccc(Oc2c(C#N)cc(O)c(O)c2C#N)c(C)c1 [Example 180]    9.30
2) Cc1ccc(-c2c(C#N)cc(O)c(O)c2C#N)cc1 [Example 152]    8.80
3) N#Cc1cc(O)c(O)c(C#N)c1Sc1ccc(CC(=O)O)cc1 [Example 164]    9.70
4) CC(=O)c1ccc(Oc2c(C#N)cc(O)c(O)c2C#N)cc1 [Example 177]    9.10

Ask | Provide measured pKi value, entry: Cc1ccccc1Sc1c(C#N)cc(O)c(O)c1C#N [Example 160]
Reply | 9.15

###

system: recombinant human soluble COMT (S-COMT) (Homo sapiens)
Sequence (P21964 1-221 isoform P21964-2): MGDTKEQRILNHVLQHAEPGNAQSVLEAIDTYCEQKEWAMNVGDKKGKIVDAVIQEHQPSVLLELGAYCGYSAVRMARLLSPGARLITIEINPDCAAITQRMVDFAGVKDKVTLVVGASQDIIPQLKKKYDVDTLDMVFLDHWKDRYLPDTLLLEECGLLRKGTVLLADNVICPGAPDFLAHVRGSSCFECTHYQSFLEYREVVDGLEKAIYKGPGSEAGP
protocol: COMT inhibiting activity in vitro, Assay 2 (HPLC with fluorescence detection)
Format: biochemical
condition-context: Assay 2: 0.8 nM S-COMT, esculetin 0.5 μM, Morrison equation
measurement-kind: Ki (nM)
Dear colleague, please return just the value in nM, with no unit written.

Example results:
1) N#Cc1cc(O)c(O)c(C#N)c1Cc1ccc(CCC(=O)O)cc1 [Example 153]    0.4
2) COC(=O)c1ccc(Sc2c(C#N)cc(O)c(O)c2C#N)cc1 [Example 161]    0.3

Ask | Provide measured Ki value, entry: N#Cc1cc(O)c(O)c(C#N)c1Cc1ccc(C(F)(F)F)cc1 [Example 154]
Reply | 1.3

Ask | Provide measured Ki value, entry: COC(=O)CCc1ccc(Sc2c(C#N)cc(O)c(O)c2C#N)cc1 [Example 144]
Reply | 0.7

###

system: recombinant human soluble COMT (S-COMT) (Homo sapiens)
protocol: COMT inhibiting activity in vitro, Assay 2 (HPLC with fluorescence detection)
Format: biochemical
condition-context: Assay 2: 0.8 nM S-COMT, esculetin 0.5 μM, Morrison equation
Reported Ki is given for each of the following compounds.
Dear colleague, please return just the value in nM, with no unit written.

Example results:
1) N#Cc1cc(O)c(O)c(C#N)c1Sc1ccc(Cl)cc1    0.94
2) Cc1ccc([S+]([O-])c2c(C#N)cc(O)c(O)c2C#N)cc1 (stereo not drawn)    0.26
3) COc1ccc(Sc2c(C#N)cc(O)c(O)c2C#N)cc1    0.3
4) N#Cc1cc(O)c(O)c(C#N)c1Sc1ccncc1    0.9
5) Cc1ccc(S(=O)(=O)c2c(C#N)cc(O)c(O)c2C#N)cc1 [Example 209, 4,5-Dihydroxy-2-tosylisophthalonitrile]    0.1
6) N#Cc1cc(O)c(O)c(C#N)c1Sc1cccc(C(=O)O)c1    0.2
7) N#Cc1cc(O)c(O)c(C#N)c1Sc1ccc2ccccc2c1    0.5
8) CCc1ccc(Sc2c(C#N)cc(O)c(O)c2C#N)cc1    0.53

Then there is this compound:
Ask | Provide measured Ki value, entry: `N#Cc1cc(O)c(O)c(C#N)c1Cc1ccc(C(=O)O)cc1`
Reply | 0.33
